Entry source: patent US4788304A

A collection of compounds and their measured inhibition at 10 µM
- System: synthesis of LTB4 by rat glycogen-elicited polymorphonuclear leukocytes (PMN)
- measurement.protocol: Inhibition of LTB4 synthesis by rat glycogen-elicited polymorphonuclear leukocytes (PMN)
- Type: cell-based, rat (female Wistar)
- reported.conditions: Leukocyte, A23187-stimulated rat PMN
Answer format: numeric, % implied, no suffix.

Solved entries (count: 5):
- compound: "COC(=O)C1(C(F)(F)CCCCCOc2ccc(Cl)cc2)CO1 (centres unmarked) [7 (gem-difluoro compound)]"
  val: 58
- compound: "COC(=O)C1(C(F)=CCCCOc2ccc(Cl)cc2)CO1 (centres unmarked) [6 (fluoro-vinyl compound)]"
  val: 15
- compound: "COC(=O)C1(C(=O)CCCCCOc2ccc(Cl)cc2)CO1 (centres unmarked) [Example 7A]"
  val: 30
- compound: "COC(=O)C1(C(F)CCCCCOc2ccc(Cl)cc2)CO1 (single isomer, unassigned) [Example 3]"
  val: 17
- compound: "COC(=O)C1(C(F)(F)CCCCOc2ccc(Cl)cc2)CO1 (centres unmarked) [6 (gem-difluoro compound)]"
  val: 7

**Query** Value lookup for inhibition at 10 µM; key = COC(=O)C1(C(=O)CCCCc2ccccc2)CO1 (centres unmarked) [Example 9]
**Result** 7

**Query** Value lookup for inhibition at 10 µM; key = CCOC(=O)C1(CCCCCc2ccc(Cl)cc2)CO1 (centres unmarked) [Example 10]
**Result** 23

**Query** Value lookup for inhibition at 10 µM; key = COC(=O)C1(C(=O)CCCCOc2ccc(Cl)cc2)CO1 (centres unmarked) [Example 6A]
**Result** 11
